Molecular target: ribonucleoprotein (RNP)
Experiment: AtheNA Multi-Lyte ANA, Ab at 50 ug/ml;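 further: monoclonal antibodies probed against a nuclear autoantigen panel (SSA, SSB, Sm, RNP, Scl-70, Jo-1, dsDNA, CentB, histones), with anti-HIV 4E10 and palivizumab as control antibodies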
READOUT: AtheNA signal
Answers are plain numbers.

Ab7960/293i (antibody, IgG1, V domains shown, Recombinant human antibody with IgG1 heavy chain backbone and kappa light chain constant; they begin at LVESGGG and MTQSP; also called mAb 7960; mAb7960) VH: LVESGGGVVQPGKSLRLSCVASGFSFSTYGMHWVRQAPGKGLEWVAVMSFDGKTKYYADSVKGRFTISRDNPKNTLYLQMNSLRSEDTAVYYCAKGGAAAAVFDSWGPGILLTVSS VL: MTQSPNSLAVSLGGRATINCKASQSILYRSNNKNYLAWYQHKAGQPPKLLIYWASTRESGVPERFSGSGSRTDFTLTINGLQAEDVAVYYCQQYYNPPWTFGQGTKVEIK; 4
Ab7957/293i (antibody, IgG1, V domains shown, Recombinant human antibody with IgG1 heavy chain backbone and kappa light chain constant; they begin at LVESGGG and MTQSP; also called Ab7957i; mAb 7957) VH: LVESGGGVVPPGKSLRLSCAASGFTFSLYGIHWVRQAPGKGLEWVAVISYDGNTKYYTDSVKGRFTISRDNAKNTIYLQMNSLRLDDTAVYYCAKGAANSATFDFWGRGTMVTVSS VL: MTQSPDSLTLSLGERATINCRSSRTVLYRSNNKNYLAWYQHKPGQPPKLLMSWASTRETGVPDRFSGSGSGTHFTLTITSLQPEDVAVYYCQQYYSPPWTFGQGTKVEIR; 6

Now, please, on to the next binder.
Return AtheNA signal (reported value) for this binder: Ab7955 (antibody, V domains shown, Recombinant human antibody with IgG1 heavy chain backbone and kappa light chain constant; also called mAb 7955; clone 19) VH: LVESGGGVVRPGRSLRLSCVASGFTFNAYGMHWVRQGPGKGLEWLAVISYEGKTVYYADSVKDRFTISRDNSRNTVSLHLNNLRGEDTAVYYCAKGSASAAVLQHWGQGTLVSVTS VL: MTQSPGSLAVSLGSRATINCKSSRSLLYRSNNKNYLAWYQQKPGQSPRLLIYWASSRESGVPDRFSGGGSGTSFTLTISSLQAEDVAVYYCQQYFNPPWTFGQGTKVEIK
13
